SYSTEM: T1, human GPC3 (human, UniProt P51654 25-563)
T1 construct: range 25-563; soluble analyte; also called soluble human GPC3; glypican 3
T1 sequence (P51654 25-563 limits assumed): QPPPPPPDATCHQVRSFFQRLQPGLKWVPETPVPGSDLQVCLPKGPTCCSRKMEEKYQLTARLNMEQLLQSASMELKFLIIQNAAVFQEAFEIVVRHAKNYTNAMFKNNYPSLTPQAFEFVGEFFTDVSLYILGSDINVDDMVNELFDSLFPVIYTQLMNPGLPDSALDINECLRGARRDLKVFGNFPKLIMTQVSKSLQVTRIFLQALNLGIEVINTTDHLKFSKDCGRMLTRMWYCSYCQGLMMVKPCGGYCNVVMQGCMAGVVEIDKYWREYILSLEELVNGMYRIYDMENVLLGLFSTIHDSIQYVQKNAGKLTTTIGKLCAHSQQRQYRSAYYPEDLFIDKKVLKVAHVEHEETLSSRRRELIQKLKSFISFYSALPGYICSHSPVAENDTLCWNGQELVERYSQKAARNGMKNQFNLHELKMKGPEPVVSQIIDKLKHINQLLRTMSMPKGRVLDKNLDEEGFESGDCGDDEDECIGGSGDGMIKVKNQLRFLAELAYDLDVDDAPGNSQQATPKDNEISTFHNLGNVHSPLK
ASSAY NAME: SPR
Give measured Kd for each item. Keep answers brief.
Answers are plain numbers, in nM.

BINDER: H0610-G1dh/none-Hi-Kn010G3/L0222-k0 (antibody, V domains shown, one-arm) VH: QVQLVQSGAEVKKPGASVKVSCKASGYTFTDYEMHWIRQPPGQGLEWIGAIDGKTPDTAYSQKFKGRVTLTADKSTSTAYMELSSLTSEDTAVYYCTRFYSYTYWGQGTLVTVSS VL: DIVMTQSPLSLPVTPGEPASISCRSSQSPVHSNRNTYIQWYQQKPGQAPRLLIYKVSNRFSGVPDRFSGSGSGTDFTLKISRVEAEDVGVYYCYQGTQVPYTFGQGTKLEIKR
REPORTED RESULT: 0.00014

BINDER: GCH023-G1dh/none-Hi-Kn010G3/L0000-k0 (antibody, V domains shown, one-arm) VH: QVQLVQSGAEVKKPGASVKVSCKASGYTFTDYEMHWIRQPPGEGLEWIGAIDGETPDTAYSQKFKGRVTLTADKSTSTAYMELSSLTSEDTAVYYCTRFYSYTYWGQGTLVTVSS VL: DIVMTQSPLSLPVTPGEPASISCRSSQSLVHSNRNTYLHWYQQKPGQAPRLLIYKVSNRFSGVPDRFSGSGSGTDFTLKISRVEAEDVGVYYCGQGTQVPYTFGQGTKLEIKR
REPORTED RESULT: 4.94

BINDER: H0610-G1dh/none-Hi-Kn010G3/L0204-k0 (antibody, V domains shown, one-arm) VH: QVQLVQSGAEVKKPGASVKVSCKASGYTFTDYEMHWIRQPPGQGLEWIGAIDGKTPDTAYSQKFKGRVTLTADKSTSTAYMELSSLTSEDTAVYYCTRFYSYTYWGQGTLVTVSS VL: DIVMTQSPLSLPVTPGEPASISCRSSQSPVHSNRNTYLHWYQQKPGQAPRLLIYKVSNRFRGVPDRFSGSGSGTDFTLKISRVEAEDVGVYYCGQGTQVPYTFGQGTKLEIKR
REPORTED RESULT: 0.727

BINDER: H0610-G1dh/none-Hi-Kn010G3/L0014-k0 (antibody, V domains shown, one-arm) VH: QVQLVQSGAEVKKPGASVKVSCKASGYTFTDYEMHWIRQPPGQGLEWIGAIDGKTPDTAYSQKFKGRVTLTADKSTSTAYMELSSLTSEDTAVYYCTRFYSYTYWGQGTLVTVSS VL: DIVMTQSPLSLPVTPGEPASISCRSSQSMVHSNRNTYLHWYQQKPGQAPRLLIYKVSNRFSGVPDRFSGSGSGTDFTLKISRVEAEDVGVYYCGQGTQVPYTFGQGTKLEIK
REPORTED RESULT: 1.82

Now turn to the next binder.
Using known records, supply Kd for H0610-G1dh/none-Hi-Kn010G3/TR01L016-k0 (antibody, V domains shown, one-arm) VH: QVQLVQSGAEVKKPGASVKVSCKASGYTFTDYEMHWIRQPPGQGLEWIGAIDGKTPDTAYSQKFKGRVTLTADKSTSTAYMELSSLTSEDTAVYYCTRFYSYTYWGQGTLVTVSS VL: DIVMTQSPLSLPVTPGEPASISCRSSQSPVHSNRNTYLHWYLQKPGQSPQLLIYKVSNRFSGVPDRFSGSGSGTDFTLKISRVEAEDVGVYYCYQGTQVPYTFGQGTKLEIK
1.08

The reported measurements were obtained from patent US20250066503A1.
